biological target: UniProtKB P07814; experiment: TR-FRET ligand displacement assay with tracer MAT379 (CoraFluor-1-Halo and anti-His6 antibody formats); format: binding; set-up: made in house; host or cells: E. coli SoluBL-21; conditions: HsProRS KD + 100 μM proline, bound, + 100 μM proline; bound given in μM
Readout label: Kd

- CC(C)(C)OC(=O)N1CCC[C@H]1C(=O)NC1CCN(C(=O)Nc2nccnc2C(=O)NC2Cc3ccccc3C2)CC1: > 5.09 µM

// query # get_value(readout='Kd', item= COc1ccc(Cl)cc1C(=O)NCCc1ccc(S(=O)(=O)NC(=O)NC2CCCCC2)cc1 [Glyburide, reference compound] )
// result > 50.9 µM

---

EC50: recorded values
test system: P. falciparum Dd2-2D4; assay: P. falciparum asexual blood stage (ABS) growth assay, SYBR Green, 72 h, wild-type parasites; assay type: cell-based, Plasmodium falciparum; details: Plasmodium falciparum, DD2; SI Fig 16b; values on -log scale; read-out: ABS - Dd2-2D4 (converted)
Write down the numeric answer in nM and omit the unit.

Here's what some known entries look like.
* CC1(C(=O)Nc2nccnc2C(=O)NC2Cc3ccccc3C2)CCCCC1 | 180
* O=C(NC1Cc2ccccc2C1)c1nccnc1NC(=O)N1CCC(CCO)CC1 | 153
* NCCCCCC(=O)NC1CCN(C(=O)Nc2nccnc2C(=O)NC2Cc3ccccc3C2)CC1 | 3120

// query Which EC50 is listed for CC(C)(C)OC(=O)NCC1CCN(C(=O)Nc2nccnc2C(=O)NC2Cc3ccccc3C2)CC1 ?
// result 6580

---

molecular target: HsProRS (Homo sapiens, UniProt P07814); test: TR-FRET ligand displacement assay with tracer MAT379 (CoraFluor-1-Halo and anti-His6 antibody formats); format: binding; set-up: made in house; host or cells: E. coli SoluBL-21; settings: HsProRS - best Kd, SI Fig 16a; values on -log scale
Sequence (P07814 996-1512): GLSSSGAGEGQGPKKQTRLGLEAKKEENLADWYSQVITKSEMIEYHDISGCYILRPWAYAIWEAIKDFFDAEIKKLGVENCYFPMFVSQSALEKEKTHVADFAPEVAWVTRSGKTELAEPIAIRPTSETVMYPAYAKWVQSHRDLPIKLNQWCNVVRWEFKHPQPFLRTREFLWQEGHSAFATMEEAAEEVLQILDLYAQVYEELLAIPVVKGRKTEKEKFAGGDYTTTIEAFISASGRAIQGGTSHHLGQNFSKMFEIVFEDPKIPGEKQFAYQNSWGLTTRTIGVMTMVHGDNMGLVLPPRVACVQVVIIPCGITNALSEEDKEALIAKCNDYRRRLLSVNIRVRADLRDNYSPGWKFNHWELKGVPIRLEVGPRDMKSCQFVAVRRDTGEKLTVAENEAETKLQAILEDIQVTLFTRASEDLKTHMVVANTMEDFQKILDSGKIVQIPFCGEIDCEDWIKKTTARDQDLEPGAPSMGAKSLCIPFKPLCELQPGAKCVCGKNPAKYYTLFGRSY
Readout label: Kd (nM)
Just the number in nM, nothing appended.

// query Sample CC(C)N(C(=O)Nc1nccnc1C(=O)NC1Cc2ccccc2C1)C(C)C [compound 5] — what was its Kd?
// result 1020

// query Using the record for NC1(C(=O)Nc2nccnc2C(=O)NC2Cc3ccccc3C2)CCCCC1 [compound 17] , report its Kd.
// result 25.5

// query I have this molecule here, O=C(CC1NCCCC1O)Cn1cnc2cc(Br)c(Cl)cc2c1=O (centres unmarked) [Halofuginone] , and I need its recorded Kd.
// result 0.225

// query Need Kd of NCCCCCC(=O)NCC1CCN(C(=O)Nc2nccnc2C(=O)NC2Cc3ccccc3C2)CC1 [compound 44] , thanks.
// result 330

// query Please report the recorded Kd for CC(C)(C)OC(=O)NC1CCN(C(=O)Nc2nccnc2C(=O)NC2Cc3ccccc3C2)CC1 [compound 7] .
// result 22.1

// query I have this molecule here, O=C(Nc1nccnc1C(=O)NC1Cc2ccccc2C1)c1ccccc1 [compound 21] , and I need its recorded Kd.
// result 140

// query May I ask what Kd has been recorded for CC(C)(C)OC(=O)NCCCCCC(=O)NC1CCN(C(=O)Nc2nccnc2C(=O)NC2Cc3ccccc3C2)CC1 [compound 41] ?
// result 139

// query Consider the molecule shown here: O=C(NC1Cc2ccccc2C1)c1nccnc1NC(=O)N1CCC(CNC(=O)[C@@H]2CCCN2)CC1 [MAT345] What is its recorded Kd?
// result 140
